Data provenance is patent US12054495B2.

Molecular target: human orexin-2 receptor (OX2R) (Homo sapiens, UniProt O43614)
Sequence (O43614 1-444): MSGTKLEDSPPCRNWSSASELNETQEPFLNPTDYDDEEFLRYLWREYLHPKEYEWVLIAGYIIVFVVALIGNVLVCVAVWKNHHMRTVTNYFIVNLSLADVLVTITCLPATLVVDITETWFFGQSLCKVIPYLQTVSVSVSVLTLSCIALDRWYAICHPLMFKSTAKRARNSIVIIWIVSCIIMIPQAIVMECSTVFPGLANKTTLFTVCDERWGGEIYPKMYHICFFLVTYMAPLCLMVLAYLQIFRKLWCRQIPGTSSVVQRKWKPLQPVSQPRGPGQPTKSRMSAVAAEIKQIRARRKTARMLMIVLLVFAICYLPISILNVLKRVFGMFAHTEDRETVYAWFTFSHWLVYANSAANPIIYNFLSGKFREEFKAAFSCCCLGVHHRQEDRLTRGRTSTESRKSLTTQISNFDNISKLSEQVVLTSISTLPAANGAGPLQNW
Assay: Human OX2R IP1 assay
Conditions: T-Rex CHO cells stably overexpressing human OX2R, IP1 accumulation, 1 hr at 37 degrees C; mean EC50; ∧ = racemic mixture
pEC50: −log10 of the molar value.
Items are presented alongside their recorded pEC50.

Below, each entry is followed by its recorded pEC50 result.
INSERT INTO assay_data (compound, reading) VALUES
  ('[2H]C1([2H])COc2ccccc2C2CCC(CC2)OCC2[C@@H](NS(C)(=O)=O)CCCN21 (stereo partly shown) [Compound 60]', '6.00 to 7.00'),
  ('CS(=O)(=O)N[C@H]1CCCN2C(=O)COc3ccccc3C3CC[C@@H](CO3)OCC12 (stereo partly shown) [Compound 8]', '> 7.00'),
  ('C[C@H]1COc2ccccc2C2CCC(CC2)OCC2[C@@H](NS(C)(=O)=O)CCCN21 (stereo partly shown) [Compound 62]', '< 6.00'),
  ('CS(=O)(=O)N[C@H]1CCCN2C(=O)C(F)(F)Oc3c(F)cc(F)cc3[C@H]3CC[C@H](CC3)OC[C@@H]12 [Compound 52]', '> 7.00'),
  ('CS(=O)(=O)N[C@@H]1CCCN2C(=O)COc3cccc(F)c3[C@H]3CC[C@H](CC3)OC[C@H]12 (racemic) [Compound 49]', '> 7.00');

Recorded pEC50 for CS(=O)(=O)N[C@H]1CCCN2CC(F)(F)Oc3ccccc3[C@H]3CC[C@H](CC3)OC[C@@H]12 [Compound 41] , please?
< 6.00

Need pEC50, item CS(=O)(=O)N[C@H]1CCCN2C(=O)CCCOc3ccccc3[C@H]3CC[C@H](CC3)OC[C@@H]12 [Compound 4]
> 7.00
